Entry source: ChEMBL document CHEMBL4725260

target: 3-hydroxy-3-methylglutaryl-coenzyme A reductase (Homo sapiens); test: Induction of degradation of Flag-tagged human HMGCR-dCat-ELuc membrane domain (1 to 499 residues) expressed in HEK293 cells assessed as reduction in HMGCR-dCat-Eluc protein level after 4 hrs by luciferase reporter assay; type: cell-based; conditions: read-out: EC50
Sequence (P04035 whole entry, the tested form may be a part): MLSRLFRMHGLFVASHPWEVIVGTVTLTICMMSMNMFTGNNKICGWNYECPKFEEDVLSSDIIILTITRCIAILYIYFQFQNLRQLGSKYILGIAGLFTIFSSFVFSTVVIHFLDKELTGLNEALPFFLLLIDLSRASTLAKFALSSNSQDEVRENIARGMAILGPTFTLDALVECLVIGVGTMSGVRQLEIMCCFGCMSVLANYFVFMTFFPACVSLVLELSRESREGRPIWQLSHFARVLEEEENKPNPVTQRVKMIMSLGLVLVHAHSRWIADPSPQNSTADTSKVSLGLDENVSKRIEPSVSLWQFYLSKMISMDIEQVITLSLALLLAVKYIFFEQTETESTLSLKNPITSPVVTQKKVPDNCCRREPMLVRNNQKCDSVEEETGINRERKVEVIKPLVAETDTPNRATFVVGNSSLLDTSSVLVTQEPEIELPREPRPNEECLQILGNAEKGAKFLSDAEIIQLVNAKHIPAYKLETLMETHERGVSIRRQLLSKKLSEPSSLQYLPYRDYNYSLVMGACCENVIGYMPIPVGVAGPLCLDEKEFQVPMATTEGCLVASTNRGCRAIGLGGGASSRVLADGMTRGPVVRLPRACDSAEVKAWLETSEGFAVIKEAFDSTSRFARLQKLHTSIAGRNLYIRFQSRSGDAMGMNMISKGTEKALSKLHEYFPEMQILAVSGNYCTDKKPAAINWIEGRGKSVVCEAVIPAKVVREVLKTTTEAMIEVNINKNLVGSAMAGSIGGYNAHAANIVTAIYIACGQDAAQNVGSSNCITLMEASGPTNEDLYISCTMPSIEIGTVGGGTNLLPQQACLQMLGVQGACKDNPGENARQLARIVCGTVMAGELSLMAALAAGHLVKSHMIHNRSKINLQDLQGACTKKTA
pEC50: −log10 of the molar value.
parameter: pEC50

Value of measured pEC50 for the entry CC(C)OP(=O)(OC(C)C)C(Cc1cc(C(C)(C)C)c(O)c(C(C)(C)C)c1)P(=O)(OC(C)C)OC(C)C [APOMINE] : 6.06

Value of measured pEC50 for the entry CCOP(=O)(OCC)C(=Cc1cc(C(C)(C)C)c(O)c(C(C)(C)C)c1)P(=O)(OCC)OCC : 5.96

I. C#CCCOP(=O)(OC(C)C)C(Cc1cc(C(C)(C)C)nc(C(C)(C)C)c1)P(=O)(OC(C)C)OC(C)C (centres undefined)
II. CC(C)OP(=O)(OC(C)C)C(Cc1cc(I)cc(C(C)(C)C)c1)P(=O)(OC(C)C)OC(C)C
# return whichever of I and II has the smaller pEC50 # respond with the chosen item's label
II
